The reported numbers originate from paper PMC2869246.

test system: HepG2.2.15; experiment: Cytotoxicity by neutral red dye uptake in HepG2.2.15 cultures; type: cell-based; conditions: Table 2; monotherapy; neutral red uptake 24 hours after last treatment
outcome-measure: CC50

Value of measured CC50 for the entry CC(O)(CCO)CC(=O)O (stereo not shown) [Mevalonate] : > 10 µM

----------
test: Cytotoxicity by neutral red dye uptake in HepG2.2.15 cultures; assay type: cell-based; conditions: human, HepG2.2.15 cells
outcome-measure: CC50 at 9 days (mM)
Give bare numbers, in mM.

Recorded CC50 at 9 days (compound Nc1ccn([C@@H]2CS[C@H](CO)O2)c(=O)n1 ): 2.32
